This listing pairs molecules with measured EC50.
Target: Peroxisome proliferator-activated receptor gamma (Homo sapiens, UniProt P37231)
Sequence (P37231 whole entry): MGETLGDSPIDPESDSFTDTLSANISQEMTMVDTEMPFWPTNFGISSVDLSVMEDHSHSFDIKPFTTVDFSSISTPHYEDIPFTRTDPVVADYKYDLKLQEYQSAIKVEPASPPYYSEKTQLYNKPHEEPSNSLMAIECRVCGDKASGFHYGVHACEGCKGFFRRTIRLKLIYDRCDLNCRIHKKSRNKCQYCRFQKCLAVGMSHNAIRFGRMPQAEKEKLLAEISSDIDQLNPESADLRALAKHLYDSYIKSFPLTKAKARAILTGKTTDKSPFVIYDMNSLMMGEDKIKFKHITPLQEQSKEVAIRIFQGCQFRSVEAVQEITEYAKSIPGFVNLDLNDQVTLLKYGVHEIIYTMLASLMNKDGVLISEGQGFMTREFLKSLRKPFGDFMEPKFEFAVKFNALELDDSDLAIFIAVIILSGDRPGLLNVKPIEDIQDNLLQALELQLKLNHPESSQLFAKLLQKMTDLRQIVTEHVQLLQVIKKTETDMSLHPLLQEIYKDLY
Assay: Agonist activity against human peroxisome proliferator activated receptor gamma in CV-1 cell was determined
Type: functional, cell-based
The answer is to be given in nM; state only the numeric part.

molecule | measurement units | EC50
CC(C)OC(Cc1ccc(OCCc2noc(-c3ccccc3C(F)(F)F)n2)cc1)C(=O)O (stereo not drawn) | nM | 160
CC(C)OC(Cc1ccc(OCc2noc(-c3cc(C(F)(F)F)cc(C(F)(F)F)c3)n2)cc1)C(=O)O (stereo in doubt; -1n) | nM | 32

Task: Given the entry CC(C)OC(Cc1ccc(OCc2noc(-c3cc(C(F)(F)F)cc(C(F)(F)F)c3)n2)cc1)C(=O)O (stereo in doubt; (+)1n) , report its measured EC50.
Result: 630
